target: Tyrosine-protein kinase FRK (Homo sapiens); details: at 1 µM
value type: residual activity (%)
The response must be a number in % with no trailing unit.

Input line: Item "CCCCc1c(-c2ccc(O)cc2)[nH]c2nccnc12" has what recorded residual activity?
Output line: 59

Input line: Would you mind doing "CCCCc1c(-c2ccc(OC)cc2)[nH]c2nccnc12" as well?
Output line: 60

Input line: O=C(NC(NC(=S)Nc1ccc(F)c([N+](=O)[O-])c1)C(Cl)(Cl)Cl)C(c1ccccc1)c1ccccc1 (stereo not given) ?
Output line: 71

Input line: Now try "O=C1Nc2ccccc2/C1=C\c1c(Cl)[nH]c2ccccc12" .
Output line: 83

Input line: Continue with CSc1nc(-c2ccc(F)cc2)c(-c2ccnc(NC(C)c3ccccc3)c2)[nH]1 (stereo not given)
Output line: 90

Input line: Similarly, "COc1cc2nccc(Oc3ccc(NC(=O)Nc4cc(C)on4)c(Cl)c3)c2cc1OC" ?
Output line: 2

Input line: And then "COc1cc2nccc(Oc3ccc(NC(=S)NC(=O)c4ccccc4C)cc3)c2cc1OC" , what is it?
Output line: 6

Input line: Ok, now "COc1ccc2c(c1)c(C1=C(c3c[nH]c4ccccc34)C(=O)NC1=O)cn2CCCN(C)C"
Output line: 97

Input line: Same lookup for "O=C1NC(=O)c2c1c1c3ccccc3[nH]c1n1cncc21" , please.
Output line: 87

Input line: Consider next the molecule "N#Cc1c(NC(=O)c2cccc3ccccc23)sc2c1CCCC2" in the same way.
Output line: 88

Input line: Do the same for "COc1cc2ncnc(Nc3cccc(Cl)c3)c2cc1OC" please
Output line: 53

Input line: Ok, now "O=C1Cc2c([nH]c3ccc([N+](=O)[O-])cc23)-c2ccccc2N1"
Output line: 67

Input line: Further, for "NC(=O)Nc1sc(-c2ccc(F)cc2)cc1C(N)=O" ?
Output line: 63

Input line: Record: "O=C1Cc2c([nH]c3ccc(Br)cc23)-c2ccccc2N1"
Output line: 68

Input line: Again, but for "CN(C)S(=O)(=O)c1ccc2c(c1)/C(=C/c1cc3c([nH]1)CCCC3)C(=O)N2"
Output line: 54

Input line: Quick one: "CCCC(=O)Oc1ccc2[nH]c(C(=O)c3cc4ccccc4[nH]3)cc2c1"
Output line: 92

Input line: And for "CC(C)(C)c1nc2c3ccc(F)cc3c3c(=O)[nH]ccc3c2[nH]1" ?
Output line: 74

Input line: Next record, please: "c1ccc(-c2cnc(Nc3ccc(OCCN4CCCC4)cc3)s2)cc1"
Output line: 72

Input line: Can you handle "CC(C)(C)n1nc(Cc2cccc3ccccc23)c2c(N)ncnc21" next?
Output line: 26

Input line: Please answer likewise for "O=C1Nc2ccc(Cl)cc2/C1=C/c1cc(Cl)c(O)c(Cl)c1"
Output line: 56

Sourced from ChEMBL document CHEMBL2218924
